Data provenance is ChEMBL document CHEMBL5316284.

# EXPERIMENTAL_PROTOCOL: Kinetic solubility of compound at pH 7.4 incubated for 6 hrs by LC-MS/MS analysis
# Assay type: physicochemical
# EXPERIMENTAL_CONDITIONS: buffer, read-out: Kinetic_solubility
So basically every entry gets a class from its solubility kinetic at 6 h, ranges being lower segment: < 10 µg/mL; middle segment: ≥ 10 µg/mL and < 20 µg/mL; upper segment: ≥ 20 µg/mL

COMPOUND | CLASS
O=C(CNc1ccc(Br)cc1)NC12CC3CC(CC(C3)C1)C2 | lower segment
C[C@@H]1[C@H]2C[C@@H](C[C@H]1NC(=O)CNc1ccccc1Cl)C2(C)C | middle segment
O=C(CNc1ccc(OC(F)(F)F)cc1)NC12CC3CC(CC(C3)C1)C2 | lower segment
C[C@@H]1[C@H]2C[C@@H](C[C@H]1NC(=O)CNc1ccc(OC(F)(F)F)cc1)C2(C)C | lower segment
O=C(CNc1ccc(C(F)(F)F)cc1)NC1C2CC3CC(C2)CC1C3 (stereo not drawn) | upper segment
Cc1cc(C)c2cc(C(=O)NC3CCCCCCC3)[nH]c2c1 | lower segment
O=C(CNc1cccc(Cl)c1)NC12CC3CC(CC(C3)C1)C2 | upper segment
CNC(=C[N+](=O)[O-])NCCSCc1ccc(CN(C)C)o1 | upper segment
O=C(CNc1cccc(Br)c1)NC12CC3CC(CC(C3)C1)C2 | upper segment
C[C@@H]1[C@H]2C[C@@H](C[C@H]1NC(=O)CNc1cccc(Br)c1)C2(C)C | middle segment
C[C@@H]1[C@H]2C[C@@H](C[C@H]1NC(=O)CNc1cccc(Cl)c1)C2(C)C | middle segment
